Data provenance is patent US4650811A.

tested on: disorders of the cardiac rhythm (aconitine) in rats; experiment: Anti-arrhythmic activity in rats (aconitine-induced disorders of the cardiac rhythm); format: in vivo, rat; details: 5 mg/Kg, intravenous; aconitine 10 μg/min five minutes after product; in comparison with controls
# binarize Percentage of extension of time of appearance of disorders of the cardiac rhythm: threshold 50% inclusive, high side Criterion met, low side Criterion not met

# check: Percentage of extension of time of appearance of disorders of the cardiac rhythm of CC(C)(C)NCC(O)COc1ccccc1/C=C/c1cccc2[nH]ccc12 (centres unmarked) is greater than or equal to 50%
Criterion not met

Reported Percentage of extension of time of appearance of disorders of the cardiac rhythm at or above 50%? CC(C)(C)NCC(O)COc1ccccc1CCc1cccc2[nH]ccc12 (centres unmarked)
Criterion met

Could you verify whether the entry CC(C)(C)NCC(O)COc1ccccc1/C=C/c1cccc2c1CC(=O)N2 (centres unmarked) shows Percentage of extension of time of appearance of disorders of the cardiac rhythm of no less than 50%?
Criterion met

Confirm if Percentage of extension of time of appearance of disorders of the cardiac rhythm reported for the compound CC(C)(C)NCCOc1ccccc1/C=C/c1cccc2[nH]ccc12 is 50% or above.
Criterion not met

---

biological target: β1 - adrenergic receptor (Rattus norvegicus); construct: 10 cortices removed from the brains of rats; from tissue; host or cells: rat brain cortex, membrane preparation; experiment: β1 - adrenergic receptor affinity (3H dihydroalprenolol displacement, rat cortices); format: binding; settings: ARL=100 CD/CX relative to propranolol; 3H dihydroalprenolol 10^-9 M, 37° C., 10 minutes
Sequence (P18090 whole entry): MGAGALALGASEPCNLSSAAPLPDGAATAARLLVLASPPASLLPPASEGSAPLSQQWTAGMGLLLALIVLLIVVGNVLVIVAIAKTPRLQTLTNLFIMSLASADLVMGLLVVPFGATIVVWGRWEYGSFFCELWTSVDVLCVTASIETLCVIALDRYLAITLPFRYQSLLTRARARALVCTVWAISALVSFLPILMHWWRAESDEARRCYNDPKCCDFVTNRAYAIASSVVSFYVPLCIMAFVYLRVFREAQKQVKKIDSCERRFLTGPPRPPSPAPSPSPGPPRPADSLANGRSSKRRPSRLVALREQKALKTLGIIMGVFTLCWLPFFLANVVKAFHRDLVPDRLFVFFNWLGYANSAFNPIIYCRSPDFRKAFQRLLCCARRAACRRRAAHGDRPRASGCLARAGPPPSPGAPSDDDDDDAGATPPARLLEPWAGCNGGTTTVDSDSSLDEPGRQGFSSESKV
property: ARL (relative affinity) (%)
Give your result in % as a bare value.

In the examples that follow, each entry is paired with its recorded ARL (relative affinity).
CC(C)(C)NCC(O)COc1ccccc1/C=C/c1cccc2[nH]ccc12 (stereo not shown) :: 198
CC(C)NCC(O)COc1ccccc1/C=C/c1cccc2[nH]ccc12 (stereo not shown) :: 92.5
CC(C)(C)NCC(O)COc1ccc(/C=C/c2cccc3[nH]ccc23)cc1 (stereo not shown) :: 0.8

Answer with the recorded ARL (relative affinity) of CC(C)NCC(O)COc1ccc(/C=C/c2cccc3[nH]ccc23)cc1 (stereo not shown) only.
1.0

---

system: mice; test: Acute toxicity after oral administration to mice; format: in vivo
# LD0 (maximum dose not causing any mortality in 8 days) annotations

CC(C)(C)NCC(O)COc1ccc(/C=C/c2cccc3c2CC(=O)N3)cc1 (centres unmarked) :: > 100 mg/kg
CC(C)(C)NCCCOc1ccccc1/C=C/c1cccc2[nH]ccc12 :: > 400 mg/kg
CC(C)(C)NCCOc1ccccc1/C=C/c1cccc2[nH]ccc12 :: 200 mg/kg
CC(C)NCC(O)COc1ccc(/C=C/c2cccc3[nH]ccc23)cc1 (centres unmarked) :: 60 mg/kg
CC(C)(C)NCC(O)COc1ccccc1CCc1cccc2[nH]ccc12 (centres unmarked) :: > 400 mg/kg
CC(C)(C)NCC(O)COc1ccc(/C=C/c2cccc3[nH]ccc23)cc1 (centres unmarked) :: > 100 mg/kg
CC(C)NCC(O)COc1ccccc1/C=C/c1cccc2[nH]ccc12 (centres unmarked) :: > 100 mg/kg

Could you now consider this next compound?
Tell me its LD0 (maximum dose not causing any mortality in 8 days) given CC(C)(C)NCC(O)COc1ccccc1/C=C/c1cccc2[nH]ccc12 (centres unmarked) as the entry.
> 100 mg/kg

---

Listing of recorded ARL (relative affinity) by entry.
target: β2 - adrenergic receptor (Rattus norvegicus, UniProt P10608); construct: The cerebelli removed from the brains of male rats; from tissue; host or cells: rat cerebellum, membrane preparation; assay: β2 - adrenergic receptor affinity (3H dihydroalprenolol displacement, rat cerebelli); format: binding; conditions: ARL=100 CD/CX relative to propranolol; 3H dihydroalprenolol 10^-9 M, 37° C., 10 minutes
Sequence (P10608 whole entry): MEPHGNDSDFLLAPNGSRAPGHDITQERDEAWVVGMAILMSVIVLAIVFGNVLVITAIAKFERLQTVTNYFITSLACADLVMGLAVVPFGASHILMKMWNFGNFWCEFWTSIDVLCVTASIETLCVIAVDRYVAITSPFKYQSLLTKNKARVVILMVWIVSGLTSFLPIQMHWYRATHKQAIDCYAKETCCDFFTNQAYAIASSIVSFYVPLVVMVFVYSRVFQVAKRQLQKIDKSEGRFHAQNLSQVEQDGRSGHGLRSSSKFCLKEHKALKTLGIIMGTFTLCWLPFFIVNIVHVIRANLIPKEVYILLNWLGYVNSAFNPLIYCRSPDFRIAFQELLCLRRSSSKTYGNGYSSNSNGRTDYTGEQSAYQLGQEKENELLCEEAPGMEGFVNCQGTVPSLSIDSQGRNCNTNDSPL
Express it in %; write the number only.

See these solved cases before continuing.
CC(C)NCC(O)COc1ccccc1/C=C/c1cccc2[nH]ccc12 (stereo not shown) :: 18
CC(C)NCC(O)COc1ccc(/C=C/c2cccc3[nH]ccc23)cc1 (stereo not shown) :: 0.03
CC(C)(C)NCC(O)COc1ccc(/C=C/c2cccc3[nH]ccc23)cc1 (stereo not shown) :: 0.1

Identify measured ARL (relative affinity) associated with CC(C)(C)NCC(O)COc1ccccc1/C=C/c1cccc2[nH]ccc12 (stereo not shown)
172
